# System: HeLa Kyoto
# experimental-details: thermal stability score vs G1/S (z-score of summed log2 fold changes over temperatures); higher = more thermally stable than in G1/S
# cond: cell cycle stage: mitosis
property-measured: thermal stability score

• MRPGAPGPLWPLPWGALAWAVGFVSSMGSGNPAPGGVCWLQQGQEATCSLVLQTDVTRAECCASGNIDTAWSNLTHPGNKINLLGFLGLVHCLPCKDSCDGVECGPGKACRMLGGRPRCECAPDCSGLPARLQVCGSDGATYRDECELRAARCRGHPDLSVMYRGRCRKSCEHVVCPRPQSCVVDQTGSAHCVVCRAAPCPVPSSPGQELCGNNNVTYISSCHMRQATCFLGRSIGVRHAGSCAGTPEEPPGGESAEEEENFV [FSTL3] = 2.67
• MALPHDSNETSYLLPPNNEDWGRQTIPDFVYGQKDLMAEGIQWPRNAPGIPDALPQSPFDAALCSAWKQRVELGLFRYRLRELQTQILPGAVGFVAQLNVERGVQRRPPQTIKSVRQAFDPVQFNFNKIRPGEVLFRLHREPDLPGTLLQEDILVVINVSPLEWGHVLLVPEPARQLPQRLLPGALRAGIEAVLLSLHPGFRVGFNSLGGLASVNHLHLHGYYLAHRLPVEQAPSEPLDPGGHLHLLQDLPAPGFLFYTRGPGPDLESLISRVCRATDYLTDHEIAHNLFVTRGAPPGKTSPSSALTGVRVILWARKSSFGIKDGEAFNVALCELAGHLPVKTSQDFSSLTEAAAVALIQDCRLPPSQAEDVQAALVALMSQEEQ [GDPGP1] = -0.661

###

# Test system: HeLa Kyoto
# experimental-details: solubility change mitosis vs G1/S (difference of NP-40 vs SDS log2 ratios) (log2 ratio difference); higher = more soluble in mitosis
solubility change mitosis (log2) reference
property-measured: solubility change mitosis (log2)

• MCAQYCISFADVEKAHINIRDSIHLTPVLTSSILNQLTGRNLFFKCELFQKTGSFKIRGALNAVRSLVPDALERKPKAVVTHSSGNHGQALTYAAKLEGIPAYIVVPQTAPDCKKLAIQAYGASIVYCEPSDESRENVAKRVTEETEGIMVHPNQEPAVIAGQGTIALEVLNQVPLVDALVVPVGGGGMLAGIAITVKALKPSVKVYAAEPSNADDCYQSKLKGKLMPNLYPPETIADGVKSSIGLNTWPIIRDLVDDIFTVTEDEIKCATQLVWERMKLLIEPTAGVGVAAVLSQHFQTVSPEVKNICIVLSGGNVDLTSSITWVKQAERPASYQSVSV [SRR] = 0.0667
• MLPGVGVFGTSLTARVIIPLLKDEGFAVKALWGRTQEEAEELAKEMSVPFYTSRIDEVLLHQDVDLVCINLPPPLTRQIAVKTLGIGKNVICDRTATPLDAFRMTSAAHYYPKLMSIMGNVLRFLPAFVRMKQLIEEGYVGEPLVCEVQVHGGSLLGKKYNWSCDDLMGGGGLHSVGTYIIDLLTFLTGQKAVKVHGLLKTFVKQTDHIKGIRQITSDDFCTFQMVLEGGVCCTVTLNFNVPGEFKQDVTVVGSAGRLLAVGTDLYGQRNSAPEQELLVQDATPVSNSLLPEKAFSDIPSPYLRGTIKMMQAVRQAFQDQDDRRTWDGRPLTMAATFDDCLYALCVVDTIKRSSQTGEWQNIAIMTEEPELSPAYLISEAMRRSRMSLYC [GFOD1] = -0.244
• MSEVTRSLLQRWGASFRRGADFDSWGQLVEAIDEYQILARHLQKEAQAQHNNSEFTEEQKKTIGKIATCLELRSAALQSTQSQEEFKLEDLKKLEPILKNILTYNKEFPFDVQPVPLRRILAPGEEENLEFEEDEEEGGAGAGSPDSFPARVPGTLLPRLPSEPGMTLLTIRIEKIGLKDAGQCIDPYITVSVKDLNGIDLTPVQDTPVASRKEDTYVHFNVDIELQKHVEKLTKGAAIFFEFKHYKPKKRFTSTKCFAFMEMDEIKPGPIVIELYKKPTDFKRKKLQLLTKKPLYLHLHQTLHKE [AIDA] = 0.0508
• MVEDELALFDKSINEFWNKFKSTDTSCQMAGLRDTYKDSIKAFAEKLSVKLKEEERMVEMFLEYQNQISRQNKLIQEKKDNLLKLIAEVKGKKQELEVLTANIQDLKEEYSRKKETISTANKANAERLKRLQKSADLYKDRLGLEIRKIYGEKLQFIFTNIDPKNPESPFMFSLHLNEARDYEVSDSAPHLEGLAEFQENVRKTNNFSAFLANVRKAFTATVYN [SPC25] = 0.0937
• MGRSRSRSSSRSKHTKSSKHNKKRSRSRSRSRDKERVRKRSKSRESKRNRRRESRSRSRSTNTAVSRRERDRERASSPPDRIDIFGRTVSKRSSLDEKQKREEEEKKAEFERQRKIRQQEIEEKLIEEETARRVEELVAKRVEEELEKRKDEIEREVLRRVEEAKRIMEKQLLEELERQRQAELAAQKAREEEERAKREELERILEENNRKIAEAQAKLAEEQLRIVEEQRKIHEERMKLEQERQRQQKEEQKIILGKGKSRPKLSFSLKTQD [ARGLU1] = 0.866

###

# Tested on: HeLa Kyoto
# experimental-details: solubility in G1/S (NP-40 vs SDS abundance) (log2 ratio); higher = more soluble
# cond: cell cycle stage: G1/S
property-measured: solubility in G1/S (log2)

* MTEADVNPKAYPLADAHLTKKLLDLVQQSCNYKQLRKGANEATKTLNRGISEFIVMAADAEPLEIILHLPLLCEDKNVPYVFVRSKQALGRACGVSRPVIACSVTIKEGSQLKQQIQSIQQSIERLLV [SNU13] | -0.625
* MLAARLVCLRTLPSRVFHPAFTKASPVVKNSITKNQWLLTPSREYATKTRIGIRRGRTGQELKEAALEPSMEKIFKIDQMGRWFVAGGAAVGLGALCYYGLGLSNEIGAIEKAVIWPQYVKDRIHSTYMYLAGSIGLTALSAIAISRTPVLMNFMMRGSWVTIGVTFAAMVGAGMLVRSIPYDQSPGPKHLAWLLHSGVMGAVVAPLTILGGPLLIRAAWYTAGIVGGLSTVAMCAPSEKFLNMGAPLGVGLGLVFVSSLGSMFLPPTTVAGATLYSVAMYGGLVLFSMFLLYDTQKVIKRAEVSPMYGVQKYDPINSMLSIYMDTLNIFMRVATMLATGGNRKK [GHITM] | -0.101

###

melting temperature reference
# System: HeLa Kyoto
# experimental-details: melting temperature (median over replicates), in situ; higher = more thermally stable
# cond: cell cycle stage: mitosis
property-measured: melting temperature (°C)

* MKGKEEKEGGARLGAGGGSPEKSPSAQELKEQGNRLFVGRKYPEAAACYGRAITRNPLVAVYYTNRALCYLKMQQHEQALADCRRALELDGQSVKAHFFLGQCQLEMESYDEAIANLQRAYSLAKEQRLNFGDDIPSALRIAKKKRWNSIEERRIHQESELHSYLSRLIAAERERELEECQRNHEGDEDDSHVRAQQACIEAKHDKYMADMDELFSQVDEKRKKRDIPDYLCGKISFELMREPCITPSGITYDRKDIEEHLQRVGHFDPVTRSPLTQEQLIPNLAMKEVIDAFISENGWVEDY [STUB1] | 49.5
* MAAAEPSPRRVGFVGAGRMAGAIAQGLIRAGKVEAQHILASAPTDRNLCHFQALGCRTTHSNQEVLQSCLLVIFATKPHVLPAVLAEVAPVVTTEHILVSVAAGVSLSTLEELLPPNTRVLRVLPNLPCVVQEGAIVMARGRHVGSSETKLLQHLLEACGRCEEVPEAYVDIHTGLSGSGVAFVCAFSEALAEGAVKMGMPSSLAHRIAAQTLLGTAKMLLHEGQHPAQLRSDVCTPGGTTIYGLHALEQGGLRAATMSAVEAATCRAKELSRK [PYCRL] | 55.3
* MLLLAAAFLVAFVLLLYMVSPLISPKPLALPGAHVVVTGGSSGIGKCIAIECYKQGAFITLVARNEDKLLQAKKEIEMHSINDKQVVLCISVDVSQDYNQVENVIKQAQEKLGPVDMLVNCAGMAVSGKFEDLEVSTFERLMSINYLGSVYPSRAVITTMKERRVGRIVFVSSQAGQLGLFGFTAYSASKFAIRGLAEALQMEVKPYNVYITVAYPPDTDTPGFAEENRTKPLETRLISETTSVCKPEQVAKQIVKDAIQGNFNSSLGSDGYMLSALTCGMAPVTSITEGLQQVVTMGLFRTIALFYLGSFDSIVRRCMMQREKSENADKTA [KDSR] | 57.9

###

# Tested on: HeLa Kyoto
# experimental-details: solubility in G1/S (NP-40 vs SDS abundance) (log2 ratio); higher = more soluble
# cond: cell cycle stage: G1/S
property-measured: solubility in G1/S (log2)

- MTLEAIRYSRGSLQILDQLLLPKQSRYEAVGSVHQAWEAIRAMKVRGAPAIALVGCLSLAVELQAGAGGPGLAALVAFVRDKLSFLVTARPTAVNMARAARDLADVAAREAEREGATEEAVRERVICCTEDMLEKDLRDNRSIGDLGARHLLERVAPSGGKVTVLTHCNTGALATAGYGTALGVIRSLHSLGRLEHAFCTETRPYNQGARLTAFELVYEQIPATLITDSMVAAAMAHRGVSAVVVGADRVVANGDTANKVGTYQLAIVAKHHGIPFYVAAPSSSCDLRLETGKEIIIEERPGQELTDVNGVRIAAPGIGVWNPAFDVTPHDLITGGIITELGVFAPEELRTALTTTISSRDGTLDGPQM [MRI1]: 0.21
- MSAFSEAALEKKLSELSNSQQSVQTLSLWLIHHRKHSRPIVTVWERELRKAKPNRKLTFLYLANDVIQNSKRKGPEFTKDFAPVIVEAFKHVSSETDESCKKHLGRVLSIWEERSVYENDVLEQLKQALYGDKKPRKRTYEQIKVDENENCSSLGSPSEPPQTLDLVRALQDLENAASGDAAVHQRIASLPVEVQEVSLLDKITDKESGERLSKMVEDACMLLADYNGRLAAEIDDRKQLTRMLADFLRCQKEALAEKEHKLEEYKRKLARVSLVRKELRSRIQSLPDLSRLPNVTGSHMHLPFAGDIYSED [RPRD1A]: 0.66

Hey, just so you know, these numbers are from the supplement of paper PMC5998384.
